Taken from patent US4654373A.

Experimental details: Distribution after oral administration (HPLC)
Assay type: in vivo, rat
Applied conditions: rat; plasma, oral 50 mg/kg, 30 min.; read-out: Mean plasmatic concentration
Measurement kind: concentration at 0.5 h (ng/mL)
Quick reminder: number only, in ng/mL, skip the unit.

Q) Requested field: concentration at 0.5 h. Item: COC1=C(OC)C(=O)C(CC=C(C)CCC=C(C)CCC=C(C)CCC=C(C)CCC=C(C)CCC=C(C)CCC=C(C)CCC=C(C)CCC=C(C)CCC=C(C)C)=C(C)C1=O [Coenzyme Q10]
A) 170

---

Experimental details: Distribution after parenteral (intramuscular) administration (HPLC)
Assay type: in vivo, rat
Applied conditions: rat, im; liver, intramuscular 20 mg/kg, 6 hours; read-out: Mean tissutal concentration
Measurement kind: concentration at 6 h

Q) Requested field: concentration at 6 h. Item: COC1=C(OC)C(=O)C(CC=C(C)CCC=C(C)CCC=C(C)CCC=C(C)CCC=C(C)CCC=C(C)CCC=C(C)CCC=C(C)CCC=C(C)CCC=C(C)C)=C(C)C1=O [Coenzyme Q10]
A) 14400 ng/g
